src = PubChem BioAssay (NCI)

# TGI annotations
test system: U251 CNS; experiment: NCI tumour cell line growth inhibition, 48 h
quantityName: TGI

1) NCCCCN(CCCN)C(=O)c1ccccc1 = > 100 µM
2) C1=Nc2sc3c(c2C2=NCCN12)CCCC3 = 41.7 µM
3) COC(=O)[C@]12CSC[C@H]1C[C@H](c1ccccc1OC)N2 = > 100 µM
4) CN1C(=O)N/C(=C\c2ccc(S(=O)(=O)N/N=C\C(O)C(O)C(O)CO)cc2)C1=O (stereo not given) = > 100 µM
5) CCCc1c[nH]c(-c2ccc(-c3cc(CCC)c(C=O)[nH]3)s2)c1 = 29.2 µM
6) O=[As](O)(O)c1ccc(N=Nc2ccc([As](=O)(O)O)cc2)cc1 = > 100 µM
7) CC(=O)O[C@H](C[C@H](C(C)C)N(C)C(=O)[C@@H](NC(=O)[C@H]1CCCCN1C)C(C)C)c1nc(C(=O)N[C@@H](Cc2ccccc2)C[C@H](C)C(=O)O)c(C(C)C)s1 = > 33.3 µM
8) COC(=O)c1ccc(NC(=O)Nc2ccc3oc(=O)c4ccccc4c3c2)cc1 = > 100 µM
9) OCC1OC(OCC(O)C(O)C(O)C(/C=N/Nc2ccccc2)=N/Nc2ccccc2)C(O)C(O)C1O (stereo not given) = > 100 µM
10) CCOC(=O)N(c1ccccc1)c1cc(=O)n2ccccc2n1 = > 100 µM
